I'd be grateful if you could share measured PBM binding z-score for these entries.
# Tested on: PPARa:RXRa (NR concentration 270 nM, RXRa partner concentration 90 nM)
# experiment description: PBM binding z-score (relative to random genomic background probes); higher = stronger binding; sequences stand for … in GC…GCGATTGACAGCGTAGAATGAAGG

The recorded PBM binding z-score for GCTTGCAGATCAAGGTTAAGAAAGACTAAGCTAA is 1.25

The recorded PBM binding z-score for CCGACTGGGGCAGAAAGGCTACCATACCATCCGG is -0.338

The recorded PBM binding z-score for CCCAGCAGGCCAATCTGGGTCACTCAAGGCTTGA is 3.19

The recorded PBM binding z-score for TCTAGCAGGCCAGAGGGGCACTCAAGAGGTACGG is 0.22

The recorded PBM binding z-score for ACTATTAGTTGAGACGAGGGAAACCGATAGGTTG is -0.349

The recorded PBM binding z-score for AGAATGATGTTACCAAAGATCAGGGAAACGCTTG is -0.0184

The recorded PBM binding z-score for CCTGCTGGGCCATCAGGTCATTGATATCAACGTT is 1.73

The recorded PBM binding z-score for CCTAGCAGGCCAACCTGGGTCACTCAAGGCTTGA is 2.05

The recorded PBM binding z-score for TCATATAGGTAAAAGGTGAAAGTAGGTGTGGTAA is 5.4

The recorded PBM binding z-score for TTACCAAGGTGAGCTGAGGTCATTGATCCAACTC is 3.78

The recorded PBM binding z-score for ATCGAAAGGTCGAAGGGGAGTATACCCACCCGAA is 4.19

The recorded PBM binding z-score for ATCTCTAGATAAGACTCAGTTCAGTGAAGAACGC is -0.438

----------
# Test system: LXRb homodimer (NR concentration 270 nM)
# experiment description: PBM binding z-score (relative to random genomic background probes); higher = stronger binding; sequences stand for … in GC…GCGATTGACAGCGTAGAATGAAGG
readout name: PBM binding z-score
Lab note: record just the number, no unit beside it.

The recorded PBM binding z-score for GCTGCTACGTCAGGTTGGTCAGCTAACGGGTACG is -0.619

The recorded PBM binding z-score for ATCTCTAGGTAAAGGTTCAGTGAATCCCGAGGAT is 0.67

The recorded PBM binding z-score for CGAACGAGGGCATGAGTTGATAGTAAATGCCGAT is -0.709

The recorded PBM binding z-score for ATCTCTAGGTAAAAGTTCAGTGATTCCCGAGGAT is 0.691

The recorded PBM binding z-score for CCGAGTAGGTTATGGGGGATTCAGGCAACGGTGA is 6.87

The recorded PBM binding z-score for GATGCTAGGTCAGGTTGGTCAGCTAACGGGTACG is 0.041

The recorded PBM binding z-score for CAAACTAGGTCACGAAAGGTCAAAGTAGAATGAC is 2.72

The recorded PBM binding z-score for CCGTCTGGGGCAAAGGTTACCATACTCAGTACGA is -0.982

The recorded PBM binding z-score for CATACAGGGTCAACTAGGCCAGAGTAGGGACGGC is 0.96

The recorded PBM binding z-score for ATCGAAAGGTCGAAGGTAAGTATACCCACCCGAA is 0.858

The recorded PBM binding z-score for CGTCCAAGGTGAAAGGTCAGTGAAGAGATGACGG is -0.321

The recorded PBM binding z-score for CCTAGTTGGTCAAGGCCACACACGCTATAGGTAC is 0.294

----------
# Tested on: PPARg:RXRa 90nM:30nM, anti-RXR (NR concentration 90 nM, RXRa partner concentration 30 nM)
# experiment description: PBM binding z-score (relative to random genomic background probes); higher = stronger binding; sequences stand for … in GC…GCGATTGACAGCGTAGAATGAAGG
readout name: PBM binding z-score
Lab note: record just the number, no unit beside it.

# lookup: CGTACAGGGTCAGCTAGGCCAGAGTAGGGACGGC on PPARg:RXRa 90nM:30nM, anti-RXR (NR concentration 90 nM, RXRa partner concentration 30 nM), PBM binding z-score = 1.84

# lookup: ATTTCTAGGTAACCAAGTTCAGTGAATGCCGAAC on PPARg:RXRa 90nM:30nM, anti-RXR (NR concentration 90 nM, RXRa partner concentration 30 nM), PBM binding z-score = 1.38

# lookup: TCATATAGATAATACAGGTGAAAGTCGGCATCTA on PPARg:RXRa 90nM:30nM, anti-RXR (NR concentration 90 nM, RXRa partner concentration 30 nM), PBM binding z-score = 3.51

# lookup: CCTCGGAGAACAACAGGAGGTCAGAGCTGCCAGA on PPARg:RXRa 90nM:30nM, anti-RXR (NR concentration 90 nM, RXRa partner concentration 30 nM), PBM binding z-score = -0.29

# lookup: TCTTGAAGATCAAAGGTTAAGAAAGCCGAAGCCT on PPARg:RXRa 90nM:30nM, anti-RXR (NR concentration 90 nM, RXRa partner concentration 30 nM), PBM binding z-score = 6.85

# lookup: TTACCAAGGTGAGCTGAGGTCGTTTATCCAACTC on PPARg:RXRa 90nM:30nM, anti-RXR (NR concentration 90 nM, RXRa partner concentration 30 nM), PBM binding z-score = 0.644

# lookup: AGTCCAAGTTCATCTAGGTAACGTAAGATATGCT on PPARg:RXRa 90nM:30nM, anti-RXR (NR concentration 90 nM, RXRa partner concentration 30 nM), PBM binding z-score = 0.991

# lookup: TCAGACAGGTGAAGGTAACTCACGTACGCAGTCG on PPARg:RXRa 90nM:30nM, anti-RXR (NR concentration 90 nM, RXRa partner concentration 30 nM), PBM binding z-score = 2.75

# lookup: TCTAGTTGGTCAAAGGTCACACAGTCGAAATGCG on PPARg:RXRa 90nM:30nM, anti-RXR (NR concentration 90 nM, RXRa partner concentration 30 nM), PBM binding z-score = 11.1

# lookup: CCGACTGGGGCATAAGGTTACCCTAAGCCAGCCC on PPARg:RXRa 90nM:30nM, anti-RXR (NR concentration 90 nM, RXRa partner concentration 30 nM), PBM binding z-score = 2.09

# lookup: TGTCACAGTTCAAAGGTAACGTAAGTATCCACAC on PPARg:RXRa 90nM:30nM, anti-RXR (NR concentration 90 nM, RXRa partner concentration 30 nM), PBM binding z-score = 3.69

# lookup: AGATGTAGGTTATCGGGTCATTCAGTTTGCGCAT on PPARg:RXRa 90nM:30nM, anti-RXR (NR concentration 90 nM, RXRa partner concentration 30 nM), PBM binding z-score = 5.27

----------
# System: PPARg:RXRa 90nM:30nM, anti-RXR (NR concentration 90 nM, RXRa partner concentration 30 nM)
# experiment description: PBM binding z-score (relative to random genomic background probes); higher = stronger binding; sequences stand for … in GC…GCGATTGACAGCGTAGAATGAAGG
I'd be grateful if you could share measured PBM binding z-score for these entries.
Lab note: record just the number, no unit beside it.

The recorded PBM binding z-score for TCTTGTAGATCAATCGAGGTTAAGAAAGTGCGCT is 2.4

The recorded PBM binding z-score for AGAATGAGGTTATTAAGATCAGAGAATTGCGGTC is 1.22

The recorded PBM binding z-score for CGTCCAAGGTCAATGCTATGTCAGTGAAAGCATT is 2.95

The recorded PBM binding z-score for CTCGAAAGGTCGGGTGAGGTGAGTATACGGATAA is 1.04

The recorded PBM binding z-score for ACTATTAGTTGACTGAGGGCAACCGATACGACGC is 0.117

The recorded PBM binding z-score for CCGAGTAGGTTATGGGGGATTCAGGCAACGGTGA is 3.77

The recorded PBM binding z-score for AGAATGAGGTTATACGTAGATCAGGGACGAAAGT is 1.6

The recorded PBM binding z-score for ACTTGCAGGCCAAGTTTGGGTCACTCAAACAAAG is 0.0704

The recorded PBM binding z-score for CCAGACAGGTGAACGGTAACTCAGTCTGGTACGC is 0.132

The recorded PBM binding z-score for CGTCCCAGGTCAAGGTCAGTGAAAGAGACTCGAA is 3.02

The recorded PBM binding z-score for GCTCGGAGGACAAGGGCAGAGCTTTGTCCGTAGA is -0.777

The recorded PBM binding z-score for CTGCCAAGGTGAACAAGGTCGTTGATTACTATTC is 0.638
